Ki values by entry
Protein target, amino acids: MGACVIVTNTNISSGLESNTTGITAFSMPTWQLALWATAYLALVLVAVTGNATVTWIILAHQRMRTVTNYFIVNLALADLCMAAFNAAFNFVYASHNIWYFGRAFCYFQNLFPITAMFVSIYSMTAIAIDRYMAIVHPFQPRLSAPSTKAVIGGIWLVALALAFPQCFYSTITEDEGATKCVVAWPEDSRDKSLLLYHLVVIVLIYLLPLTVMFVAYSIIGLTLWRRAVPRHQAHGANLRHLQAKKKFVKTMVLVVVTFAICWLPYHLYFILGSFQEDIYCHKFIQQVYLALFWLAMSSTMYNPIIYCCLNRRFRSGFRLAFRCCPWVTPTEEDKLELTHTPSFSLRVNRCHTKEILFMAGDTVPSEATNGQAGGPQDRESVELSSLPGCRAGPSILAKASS

{"compound": "CO/N=C(\\CN(C)C(=O)c1cc(Cl)cc(Cl)c1)C(CCN1CCC(N2CCCCC2=O)CC1)c1ccc(Cl)c(Cl)c1 (centres undefined)", "Ki": "2000 pM"}
{"compound": "CO/N=C(\\CN(C)C(=O)c1cc(Cl)cc(Cl)c1)C(CCN1CCC(N2CCCC(CC(=O)N3CCOCC3)C2=O)CC1)c1ccc(Cl)c(Cl)c1 (centres undefined)", "Ki": "1000 pM"}
{"compound": "CO/N=C(\\CN(C)C(=O)c1cc(Cl)cc(Cl)c1)[C@@H](CCN1CCC(N2CCCC(CC(=O)N(C)C)C2=O)CC1)c1ccc(Cl)c(Cl)c1 (some centres undefined)", "Ki": "300 pM"}
{"compound": "CNC(=O)CC1CCCN(C2CCN(CC[C@H](/C(CN(C)C(=O)c3cc(Cl)cc(Cl)c3)=N/OC)c3ccc(Cl)c(Cl)c3)CC2)C1=O (some centres undefined)", "Ki": "900 pM"}
{"compound": "CNC(=O)CC1CCCN(C2CCN(CC[C@@H](/C(CN(C)C(=O)c3cc(Cl)cc(Cl)c3)=N/OC)c3ccc(Cl)c(Cl)c3)CC2)C1=O (some centres undefined)", "Ki": "400 pM"}
{"compound": "CO/N=C(\\CN(C)C(=O)c1cc(Cl)cc(Cl)c1)[C@H](CCN1CCC(N2CCCC(CC(=O)N3CC(O)C3)C2=O)CC1)c1ccc(Cl)c(Cl)c1 (some centres undefined)", "Ki": "300 pM"}
{"compound": "CNC(=O)CC1CCCN(C2CCN(CCC(/C(CN(C)C(=O)c3cc(Cl)cc(Cl)c3)=N/OC)c3ccc(Cl)c(Cl)c3)CC2)C1=O (centres undefined)", "Ki": "2000 pM"}
{"compound": "CO/N=C(\\CN(C)C(=O)c1cc(Cl)cc(Cl)c1)C(CCN1CCC(N2CCCC(CC(=O)N(C)C)C2=O)CC1)c1ccc(Cl)c(Cl)c1 (centres undefined)", "Ki": "1000 pM"}
{"compound": "CO/N=C(\\CN(C)C(=O)c1cc(Cl)cc(Cl)c1)[C@H](CCN1CCC(N2CCCC(CC(=O)N(C)C)C2=O)CC1)c1ccc(Cl)c(Cl)c1 (some centres undefined)", "Ki": "200 pM"}

---

Kb values by entry
- study_target: Substance-K receptor (Cavia porcellus)
- assay_procedure: In vitro functional NK2 activity as inhibition of guinea pig bronchoconstriction
- Type: tissue-based, Lung
- setup_conditions: read-out: pA2 (converted)

{"compound": "CO/N=C(\\CN(C)C(=O)c1cc(Cl)cc(Cl)c1)[C@H](CCN1CCC(N2CCCC(CC(=O)N3CCOCC3)C2=O)CC1)c1ccc(Cl)c(Cl)c1 (some centres undefined)", "study_target": "Substance-K receptor (Cavia porcellus)", "Kb, nM": 12.6}
{"compound": "CNC(=O)CC1CCCN(C2CCN(CC[C@H](/C(CN(C)C(=O)c3cc(Cl)cc(Cl)c3)=N/OC)c3ccc(Cl)c(Cl)c3)CC2)C1=O (some centres undefined)", "study_target": "Substance-K receptor (Cavia porcellus)", "Kb, nM": 39.8}
{"compound": "CO/N=C(\\CN(C)C(=O)c1cc(Cl)cc(Cl)c1)[C@@H](CCN1CCC(N2CCCC(CC(=O)N3CCOCC3)C2=O)CC1)c1ccc(Cl)c(Cl)c1 (some centres undefined)", "study_target": "Substance-K receptor (Cavia porcellus)", "Kb, nM": 126}
{"compound": "CO/N=C(\\CN(C)C(=O)c1cc(Cl)cc(Cl)c1)C(CCN1CCC(N2CCCCC2=O)CC1)c1ccc(Cl)c(Cl)c1 (centres undefined)", "study_target": "Substance-K receptor (Cavia porcellus)", "Kb, nM": 50.1}
{"compound": "CO/N=C(\\CN(C)C(=O)c1cc(Cl)cc(Cl)c1)[C@H](CCN1CCC(N2CCCC(CC(=O)N(C)C)C2=O)CC1)c1ccc(Cl)c(Cl)c1 (some centres undefined)", "study_target": "Substance-K receptor (Cavia porcellus)", "Kb, nM": 39.8}
{"compound": "CO/N=C(\\CN(C)C(=O)c1cc(Cl)cc(Cl)c1)C(CCN1CCC(N2CCCC(CC(=O)N(C)C)C2=O)CC1)c1ccc(Cl)c(Cl)c1 (centres undefined)", "study_target": "Substance-K receptor (Cavia porcellus)", "Kb, nM": 63.1}
{"compound": "CO/N=C(\\CN(C)C(=O)c1cc(Cl)cc(Cl)c1)[C@@H](CCN1CCC(N2CCCC(CC(=O)N(C)C)C2=O)CC1)c1ccc(Cl)c(Cl)c1 (some centres undefined)", "study_target": "Substance-K receptor (Cavia porcellus)", "Kb, nM": 39.8}
{"compound": "CO/N=C(\\CN(C)C(=O)c1cc(Cl)cc(Cl)c1)[C@@H](CCN1CCC(N2CCCC(CC(N)=O)C2=O)CC1)c1ccc(Cl)c(Cl)c1 (some centres undefined)", "study_target": "Substance-K receptor (Cavia porcellus)", "Kb, nM": 50.1}
{"compound": "CO/N=C(\\CN(C)C(=O)c1cc(Cl)cc(Cl)c1)C(CCN1CCC(N2CCCC(CC(=O)N3CCOCC3)C2=O)CC1)c1ccc(Cl)c(Cl)c1 (centres undefined)", "study_target": "Substance-K receptor (Cavia porcellus)", "Kb, nM": 50.1}

---

bioavailability values by entry
- assay_procedure: Bioavailability in dog
- Format: ADME, organism-based, Canis lupus familiaris
- setup_conditions: in vivo

{"compound": "CNC(=O)CC1CCCN(C2CCN(CC[C@@H](/C(CN(C)C(=O)c3cc(Cl)cc(Cl)c3)=N/OC)c3ccc(Cl)c(Cl)c3)CC2)C1=O (stereo partly drawn)", "bioavailability / %": 66}
{"compound": "CO/N=C(\\CN(C)C(=O)c1cc(Cl)cc(Cl)c1)[C@H](CCN1CCC(N2CCCCC2=O)CC1)c1ccc(Cl)c(Cl)c1", "bioavailability / %": 5}
{"compound": "CO/N=C(\\CN(C)C(=O)c1cc(Cl)cc(Cl)c1)[C@H](CCN1CCC(N2CCCC(CC(N)=O)C2=O)CC1)c1ccc(Cl)c(Cl)c1 (stereo partly drawn)", "bioavailability / %": 37}

---

- assay_procedure: AUC in dog at 0-24 hr by peroral administration at 3 mpk
- Assay type: ADME, organism-based, Canis lupus familiaris
- Design: dose 3 mpk, time < 24 hr, route oral
- setup_conditions: plasma, po, 3 mg/kg

{"compound": "CO/N=C(\\CN(C)C(=O)c1cc(Cl)cc(Cl)c1)[C@H](CCN1CCC(N2CCCC(CC(=O)N(C)C)C2=O)CC1)c1ccc(Cl)c(Cl)c1 (some centres undefined)", "unit_descriptor": "ng·h/mL", "AUC at 24 h": 3460}
{"compound": "CO/N=C(\\CN(C)C(=O)c1cc(Cl)cc(Cl)c1)[C@H](CCN1CCC(N2CCCCC2=O)CC1)c1ccc(Cl)c(Cl)c1", "unit_descriptor": "ng·h/mL", "AUC at 24 h": 1220}
{"compound": "CO/N=C(\\CN(C)C(=O)c1cc(Cl)cc(Cl)c1)[C@H](CCN1CCC(N2CCCC(CC(N)=O)C2=O)CC1)c1ccc(Cl)c(Cl)c1 (some centres undefined)", "unit_descriptor": "ng·h/mL", "AUC at 24 h": 9490}
{"compound": "CNC(=O)CC1CCCN(C2CCN(CC[C@@H](/C(CN(C)C(=O)c3cc(Cl)cc(Cl)c3)=N/OC)c3ccc(Cl)c(Cl)c3)CC2)C1=O (some centres undefined)", "unit_descriptor": "ng·h/mL", "AUC at 24 h": 13600}

---

Entries with their measured Ki, system Substance-P receptor (Cavia porcellus, UniProt P30547):
readout_kind: Ki (nM)

{"compound": "CO/N=C(\\CN(C)C(=O)c1cc(Cl)cc(Cl)c1)[C@H](CCN1CCC(N2CCCC(CC(=O)N3CCOCC3)C2=O)CC1)c1ccc(Cl)c(Cl)c1 (stereo not given in full)", "recorded_result": 0.7}
{"compound": "CO/N=C(\\CN(C)C(=O)c1cc(Cl)cc(Cl)c1)[C@@H](CCN1CCC(N2CCCC(CC(=O)N(C)C)C2=O)CC1)c1ccc(Cl)c(Cl)c1 (stereo not given in full)", "recorded_result": 0.8}
{"compound": "CO/N=C(\\CN(C)C(=O)c1cc(Cl)cc(Cl)c1)C(CCN1CCC(N2CCCC(CC(=O)N(C)C)C2=O)CC1)c1ccc(Cl)c(Cl)c1 (stereo not given)", "recorded_result": 1}
{"compound": "CO/N=C(\\CN(C)C(=O)c1cc(Cl)cc(Cl)c1)[C@@H](CCN1CCC(N2CCCC(CC(=O)N3CC(O)C3)C2=O)CC1)c1ccc(Cl)c(Cl)c1 (stereo not given in full)", "recorded_result": 1.1}
{"compound": "CO/N=C(\\CN(C)C(=O)c1cc(Cl)cc(Cl)c1)[C@H](CCN1CCC(N2CCCC(CC(N)=O)C2=O)CC1)c1ccc(Cl)c(Cl)c1 (stereo not given in full)", "recorded_result": 0.8}
{"compound": "CO/N=C(\\CN(C)C(=O)c1cc(Cl)cc(Cl)c1)[C@H](CCN1CCC(N2CCCC(CC(=O)N(C)C)C2=O)CC1)c1ccc(Cl)c(Cl)c1 (stereo not given in full)", "recorded_result": 0.8}
{"compound": "CO/N=C(\\CN(C)C(=O)c1cc(Cl)cc(Cl)c1)[C@@H](CCN1CCC(N2CCCC(CC(=O)N3CCOCC3)C2=O)CC1)c1ccc(Cl)c(Cl)c1 (stereo not given in full)", "recorded_result": 0.8}
{"compound": "CO/N=C(\\CN(C)C(=O)c1cc(Cl)cc(Cl)c1)C(CCN1CCC(N2CCCC(CC(=O)N3CC(O)C3)C2=O)CC1)c1ccc(Cl)c(Cl)c1 (stereo not given)", "recorded_result": 3}
{"compound": "CNC(=O)CC1CCCN(C2CCN(CCC(/C(CN(C)C(=O)c3cc(Cl)cc(Cl)c3)=N/OC)c3ccc(Cl)c(Cl)c3)CC2)C1=O (stereo not given)", "recorded_result": 2}
{"compound": "CNC(=O)CC1CCCN(C2CCN(CC[C@H](/C(CN(C)C(=O)c3cc(Cl)cc(Cl)c3)=N/OC)c3ccc(Cl)c(Cl)c3)CC2)C1=O (stereo not given in full)", "recorded_result": 1.5}
